System: KM-20L2
Test: NCI tumour cell line growth inhibition, 48 h
The source made the active and inactive calls. Cut-off read from the data, not from the text of the source: active = GI50 up to about 1.1 µM and inactive = higher.
ENDPOINT NAME: GI50

MOLECULE: O=S1OC2(c3ccccc3-c3ccccc32)c2ccccc21 (configuration not stated)
REPORTED MEASUREMENT: > 100 µM (inactive)
--
MOLECULE: CC1OC(=O)C2CC3CCCCC3C(/C=C/C3CCCC(C)N3C)C12 (configuration not stated)
REPORTED MEASUREMENT: 79.8 µM (inactive)
--
MOLECULE: Cc1c2c(cc3c(=O)ccn(CCN(C)C)c13)c(=O)ccn2CCN(C)C
REPORTED MEASUREMENT: 5.04 µM (inactive)
--
MOLECULE: CC12CC/C(=N/NC(N)=O)C3C1CCCC32
REPORTED MEASUREMENT: > 100 µM (inactive)
--
MOLECULE: CC(C)CCC[C@@H](C)C1CCC2[C@@H]3CC=C4C[C@@H](C(=O)NCC[N+](C)(C)CCCS(=O)(=O)[O-])CC[C@]4(C)C3CC[C@@]21C (some centres not stated)
REPORTED MEASUREMENT: 16.4 µM (inactive)
--
MOLECULE: Cc1ccccc1NC(=O)C(=O)C(C#N)c1ccccc1C (configuration not stated)
REPORTED MEASUREMENT: > 100 µM (inactive)
--
MOLECULE: COC(=O)C1=C(C[S+]([O-])c2ccccc2[N+](=O)[O-])ON(C)C1c1ccccc1 (configuration not stated)
REPORTED MEASUREMENT: 21.5 µM (inactive)
--
MOLECULE: CCSc1nnc(-c2ccccc2)nc1Cc1ccc(OC)cc1
REPORTED MEASUREMENT: > 100 µM (inactive)
--
MOLECULE: O=C1C2C(C(=O)N1c1ccccc1)C1c3ccccc3C2C2C(=O)N(c3ccccc3)C(=O)C21 (configuration not stated)
REPORTED MEASUREMENT: 18.2 µM (inactive)
--
MOLECULE: CC(C)(C)/N=C/N1C=Cc2nc3ccccc3cc2C1
REPORTED MEASUREMENT: > 100 µM (inactive)
--
MOLECULE: CCN(CC)C(=O)CCn1ccc(=O)[nH]c1=O
REPORTED MEASUREMENT: > 100 µM (inactive)
--
MOLECULE: N#Cc1c(N)c(C(=O)O)nn(-c2cccc(C(F)(F)F)c2)c1=O
REPORTED MEASUREMENT: > 100 µM (inactive)
--
MOLECULE: O=C(c1cc2ccccc2[nH]1)C(O)(c1cc2ccccc2[nH]1)c1cc2ccccc2[nH]1
REPORTED MEASUREMENT: > 246 µM (inactive)
--
MOLECULE: CC1=CC2CC(C)C1(C)CCc1ccoc12 (configuration not stated)
REPORTED MEASUREMENT: > 100 µM (inactive)
--
MOLECULE: CCOC(=O)C(=O)Nc1c(CC)cccc1C(C)C
REPORTED MEASUREMENT: > 100 µM (inactive)
--
MOLECULE: CSc1sc(=S)sc1C(=O)N(C)c1ccccc1
REPORTED MEASUREMENT: > 100 µM (inactive)
--
MOLECULE: CC1=CC(=O)C(C)(C2=NC(C)(C)CO2)c2ccccc21 (configuration not stated)
REPORTED MEASUREMENT: > 100 µM (inactive)
--
MOLECULE: C1=C(c2ccccc2)SC(N2CCCCC2)S1 (configuration not stated)
REPORTED MEASUREMENT: > 100 µM (inactive)
--
MOLECULE: CC1=C(O)C(=O)c2cn(C)cc2C1=O
REPORTED MEASUREMENT: > 100 µM (inactive)
--
MOLECULE: NC1=NS(=O)(=O)N=C(N)C1=Cc1ccc([N+](=O)[O-])o1
REPORTED MEASUREMENT: 16.6 µM (inactive)
--
MOLECULE: CC(C)(C)OC(=O)C1=C(O)C(C(=O)OC(C)(C)C)C23CCCCC12C(C(=O)OC(C)(C)C)C(O)=C3C(=O)OC(C)(C)C (configuration not stated)
REPORTED MEASUREMENT: > 100 µM (inactive)
--
MOLECULE: O=Cc1ccc(-c2ccc(-c3ccc(C=O)s3)o2)s1
REPORTED MEASUREMENT: 31.3 µM (inactive)
